B1: glmS ribozyme (parent)
chain: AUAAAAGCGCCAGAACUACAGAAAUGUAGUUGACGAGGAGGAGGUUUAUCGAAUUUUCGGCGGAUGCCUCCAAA

- Variants of: B1
- procedure-text: kcat; higher = faster cleavage; RNA array
- assay-conditions: with glucosamine-6-phosphate
Fewer inactive variants are shown than the library holds.
measured-property: kcat (s⁻¹)
Numbers only here, please. The scale is s⁻¹.

G29U A48G ... 1.1e-05

Query: Fill blank: measured kcat of the variant A6U G29A is ____.
Response: 3.18e-05

Query: And then A53C U65A C70A C71A , what is it?
Response: 1.25e-05

Query: And then G13U G29U , what is it?
Response: 0.000324

Query: And then A12U C16A , what is it?
Response: 0.00549

Query: And then C70G C71U , what is it?
Response: 0.000112

Query: And then U47C A48U , what is it?
Response: 0.000264

Query: And then G40U G41A , what is it?
Response: 0.000118

Query: And then C50G U69G , what is it?
Response: 0.000141
